Test system: purified Taenia solium cysteine protease
Assay: Substrate cleavage screen of AFC-linked peptides (Step II), purified protease
Type: biochemical
Conditions: 0.4 M Citrate, pH 4.9, 0.01 M cysteine, 18 h, 37 °C
Protocol: In this step, the most efficacious substrate for detection of the cysteine protease (high Kcat substrate) was determined in vitro along with those substrates which were not well cleaved (low kcat substrates). From this point forward, the following conditions refer to all assays: "assay buffer" refers to 0.4 M Citrate, pH 4.9 (the pH optima of the protease). […] These conditions were determined by our preliminary data to be best for kinetic evaluation of the protease. […]
Residues, ends and D or L forms follow the SMILES beside them. *: point of attachment. AFC = O=c1cc(C(F)(F)F)c2ccc(N*)cc2o1; MeOSuc = COC(=O)CCC(=O)*; Cbz = O=C(OCc1ccccc1)*; Boc = CC(C)(C)OC(=O)*
measure.name: cleavage of AFC substrate (Vmax)

{"compound": "CC(C)[C@H](NC(=O)OC(C)(C)C)C(=O)N1CCC[C@H]1C(=O)N[C@@H](CCCNC(=N)N)C(=O)Nc1ccc2c(C(F)(F)F)cc(=O)oc2c1 [B-VPR-AFC, Boc-Val-Pro-Arg-AFC] (Boc-Val-Pro-Arg-{AFC})", "measured.result": "noncleavable"}
{"compound": "CC(C)C[C@H](NC(=O)OCc1ccccc1)C(=O)N[C@@H](CC(C)C)C(=O)N[C@@H](Cc1ccc(O)cc1)C(=O)Nc1ccc2c(C(F)(F)F)cc(=O)oc2c1 [Z-LLY-AFC, Z-Leu-Leu-Tyr-AFC] (Cbz-Leu-Leu-Tyr-{AFC})", "measured.result": "noncleavable"}
{"compound": "N[C@@H](CCC(=O)O)C(=O)N[C@@H](Cc1ccc(O)cc1)C(=O)Nc1ccc2c(C(F)(F)F)cc(=O)oc2c1 [EY-AFC] (H-Glu-Tyr-{AFC})", "measured.result": "not cleaved"}
{"compound": "CC(C)C[C@H](NC(=O)OCc1ccccc1)C(=O)N[C@@H](CC(C)C)C(=O)N[C@@H](CC(C)C)C(=O)Nc1ccc2c(C(F)(F)F)cc(=O)oc2c1 [Z-LLL-AFC, Z-Leu-Leu-Leu-AFC] (Cbz-Leu-Leu-Leu-{AFC})", "measured.result": "noncleavable"}
{"compound": "COC(=O)CCC(=O)N[C@@H](Cc1ccccc1)C(=O)N[C@@H](CC(C)C)C(=O)N[C@@H](Cc1ccccc1)C(=O)Nc1ccc2c(C(F)(F)F)cc(=O)oc2c1 [MeoSuc-FLF-AFC] (MeOSuc-Phe-Leu-Phe-{AFC})", "measured.result": "not cleaved"}

Source of measurements: patent EP1379634B1
